Assay: Human HepG2 cell viability assay in 384 well format
Assay type: toxicity, cell-based
Design: dose 125 nL, time 70.5 hour; concentration not given beside the values
Conditions: HepG2 cells, read-out: Inhibition
reported-metric: cytotoxicity at 70.5 h (%)
Just the number please, in %, no unit attached.

Answer with the recorded cytotoxicity at 70.5 h of Cc1cccc(CN2C(=O)CCC23CCN(C(=O)c2ccco2)CC3)c1 only.
-10.9

###

A collection of compounds and their measured cytotoxicity at 70.5 h
Assay: Human HepG2 cell viability assay in 384 well format
Assay type: toxicity, cell-based
Parameters: dose 125 nL, time 70.5 hour; concentration not given beside the values
Details: HepG2 cells, read-out: Inhibition
Just the number please, in %, no unit attached.

[[record]]
compound = "CCCc1nc(CN(CC)C(=O)c2ccc3ncsc3c2)no1"
unit = "%"
value_reported = -0.393

[[record]]
compound = "CC(=O)N(C)Cc1cccc(NC(=O)N(C)CCc2cccs2)c1"
unit = "%"
value_reported = 11.4

[[record]]
compound = "Cc1nccc(N2CCCC(C)(C(=O)NC3CCCC3)C2)n1 (centres undefined)"
unit = "%"
value_reported = -15.1


Continue with the next compound.
Answer with the recorded cytotoxicity at 70.5 h of N[C@H]1CCCN(S(=O)(=O)c2ccc(C(=O)NCC(F)F)cc2)C1 only.
25.2
